Target or test system: urease (Canavalia ensiformis)
For each of the compounds below, state its pIC50.
In textbook form, pIC50 equals minus log to base ten of the concentration in mol/L.

Read off the recorded pIC50 for CCOc1ccc(C=NNC(=O)C(C)c2ccc(-c3ccccc3)c(F)c2)c(OC)c1 (centres unmarked)
4.28

Name the recorded pIC50 of the item CC(C(=O)NN=Cc1cc([N+](=O)[O-])ccc1Cl)c1ccc(-c2ccccc2)c(F)c1 (centres unmarked) in your answer.
4.29

// fetch pIC50 given entry CC(C(=O)NN=Cc1cccc(C(F)(F)F)c1)c1ccc(-c2ccccc2)c(F)c1 (centres unmarked)
4.23

# return recorded pIC50 for input CC(C(=O)NN=Cc1ccc(O)c(O)c1O)c1ccc(-c2ccccc2)c(F)c1 (centres unmarked)
4.60

Indicate its recorded pIC50; the compound in question is CC(C(=O)NN=Cc1cccc([N+](=O)[O-])c1)c1ccc(-c2ccccc2)c(F)c1 (centres unmarked)
4.54

Give pIC50 for CC(C(=O)NN=Cc1ccc(Br)cc1F)c1ccc(-c2ccccc2)c(F)c1 (centres unmarked)
4.06

Answer with the recorded pIC50 of CSc1ccc(C=NNC(=O)C(C)c2ccc(-c3ccccc3)c(F)c2)cc1 (centres unmarked) only.
4.11

Give me measured pIC50, please, for this compound: CC(C(=O)NN=Cc1ccc(-c2ccccc2)c(F)c1)c1ccc(-c2ccccc2)c(F)c1 (centres unmarked)
4.23

====

Target or test system: UniProt P07374
Recorded endpoint: IC50 (µM)
Express the result in µM but write the number alone.

Respond only with IC50 recorded for CC(C(=O)N/N=C/c1ccc([N+](=O)[O-])cc1)c1ccc(-c2ccccc2)c(F)c1 (centres unmarked)
28.6

Tell me measured IC50 for CC(C(=O)NN=Cc1cccc2ccccc12)c1ccc(-c2ccccc2)c(F)c1 (centres unmarked) please.
53.7

State its IC50 for this compound: CC(C(=O)NN=Cc1ccc(Br)cc1)c1ccc(-c2ccccc2)c(F)c1 (centres unmarked)
58.8

Annotate the compound Cc1ccc(C=NNC(=O)C(C)c2ccc(-c3ccccc3)c(F)c2)s1 (centres unmarked) with its measured IC50.
57.5

Look up IC50 of COc1cc(C=NNC(=O)C(C)c2ccc(-c3ccccc3)c(F)c2)ccc1Oc1ccccc1 (centres unmarked) and report it.
26.5

Identify measured IC50 corresponding to CCOc1cc(C=NNC(=O)C(C)c2ccc(-c3ccccc3)c(F)c2)ccc1OC (centres unmarked)
81

Fill in IC50 for record COc1ccc(C=NNC(=O)C(C)c2ccc(-c3ccccc3)c(F)c2)c(F)c1 (centres unmarked)
89.7

Fill in reported IC50 for this entry: COc1ccc(C=NNC(=O)C(C)c2ccc(-c3ccccc3)c(F)c2)c(OC)c1OC (centres unmarked)
55.8

Give the value of IC50 reported for the following: COc1cccc(OC)c1C=NNC(=O)C(C)c1ccc(-c2ccccc2)c(F)c1 (centres unmarked)
55.7

Please give measured IC50 of the following entry: COc1cc(C=NNC(=O)C(C)c2ccc(-c3ccccc3)c(F)c2)cc(OC)c1Br (centres unmarked)
90.7

Given COc1cc(C=NNC(=O)C(C)c2ccc(-c3ccccc3)c(F)c2)ccc1F (centres unmarked) , respond with its IC50.
56.1

====

Target or test system: urease (Canavalia ensiformis, UniProt P07374)
Sequence (P07374 whole entry, looked up): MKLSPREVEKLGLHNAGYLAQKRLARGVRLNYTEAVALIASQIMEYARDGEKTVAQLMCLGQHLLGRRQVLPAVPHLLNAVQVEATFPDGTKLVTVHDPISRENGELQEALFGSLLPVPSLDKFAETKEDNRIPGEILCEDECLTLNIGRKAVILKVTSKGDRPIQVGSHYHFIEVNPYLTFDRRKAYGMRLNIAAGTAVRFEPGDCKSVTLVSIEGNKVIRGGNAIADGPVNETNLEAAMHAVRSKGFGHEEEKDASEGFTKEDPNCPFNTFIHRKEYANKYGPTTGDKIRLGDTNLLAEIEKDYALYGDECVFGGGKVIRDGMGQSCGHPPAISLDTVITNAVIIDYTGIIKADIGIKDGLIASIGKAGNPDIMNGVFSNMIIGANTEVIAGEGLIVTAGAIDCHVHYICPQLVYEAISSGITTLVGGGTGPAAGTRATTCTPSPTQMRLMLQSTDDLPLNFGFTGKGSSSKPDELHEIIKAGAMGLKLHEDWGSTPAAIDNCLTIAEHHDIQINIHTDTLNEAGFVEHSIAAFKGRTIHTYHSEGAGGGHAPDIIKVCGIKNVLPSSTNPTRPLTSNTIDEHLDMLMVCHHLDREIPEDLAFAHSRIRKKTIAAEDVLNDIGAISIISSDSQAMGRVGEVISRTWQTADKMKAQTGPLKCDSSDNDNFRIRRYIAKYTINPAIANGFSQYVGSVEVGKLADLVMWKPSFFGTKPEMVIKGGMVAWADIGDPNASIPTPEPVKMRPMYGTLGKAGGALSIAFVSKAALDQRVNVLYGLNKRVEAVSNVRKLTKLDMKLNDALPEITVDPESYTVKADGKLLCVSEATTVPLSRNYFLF
IC50 vs 60 µM: less than gives 1.0; not less than gives 0.0.

Would you kindly verify if IC50 of CC(C(=O)NN=Cc1ccccc1[N+](=O)[O-])c1ccc(-c2ccccc2)c(F)c1 (centres unmarked) [Compound 31] is strictly less than 60 µM?
1.0

hey, is IC50 for CC(C(=O)NN=Cc1cccc(O)c1O)c1ccc(-c2ccccc2)c(F)c1 (centres unmarked) [Compound 30] lower than 60 µM or not?
1.0

Take the compound COc1ccc(OC)c(C=NNC(=O)C(C)c2ccc(-c3ccccc3)c(F)c2)c1 (centres unmarked) [Compound 24] and say whether its IC50 is less than 60 µM.
0.0

Confirm or reject: IC50 of COc1ccc(/C=N/NC(=O)C(C)c2ccc(-c3ccccc3)c(F)c2)c(Cl)c1OC (centres unmarked) [Compound 16] lies strictly below 60 µM
1.0

A record lists COc1ccccc1C=NNC(=O)C(C)c1ccc(-c2ccccc2)c(F)c1 (centres unmarked) [Compound 19] . Is its IC50 below 60 µM?
1.0

For this compound, is IC50 lower than 60 µM? CC(C(=O)NN=Cc1ccc(O)c(Br)c1)c1ccc(-c2ccccc2)c(F)c1 (centres unmarked) [Compound 27]
0.0

Please determine if CC(C(=O)NN=Cc1ccccc1N)c1ccc(-c2ccccc2)c(F)c1 (centres unmarked) [Compound 6] is below 60 µM in terms of IC50.
1.0
